Tested on: G-clamp-N3 (biotin conjugate)
Assay: pull-down binding Z-score (relative to library population); higher = stronger binding
Settings: RNA library: Library-1 (pre-miRNA loops + repeats)
Label scheme for pull-down binding Z-score: lower than -0.7 is 0, -0.7 and above is 1.

Hi, just wondering whether CGGAGCCUCGCAGGGUCGGGCUCGGGCUCCCUAACCGUCUCCGCUUCUUC [hsa-mir-6084] shows pull-down binding Z-score of -0.7 or higher. 1

Given the entry UACAUAGUUCAUGCUGAGGCCGGGAUUUCAUGCAGAAAACUGGUUGCAAAAGGUGCUGAAG [hsa-mir-6085] , answer whether its pull-down binding Z-score meets or surpasses -0.7. 0

Please check the record GCUACUGUCUGCACCUGUCACUAGCAGU [hsa-mir-130a] and state if its pull-down binding Z-score is at or above -0.7. 0

Hi, just wondering whether UCUGUUGUCUGAAAGAAAACA [hsa-mir-518b_518c] shows pull-down binding Z-score of -0.7 or higher. 1

Hello, I need to know if UUUGCGUUACUUUCAAUCGUAAA [hsa-mir-548x] has measured pull-down binding Z-score not below -0.7. Thanks! 0

---

Can you tell me pull-down binding Z-score for the items I'm about to list?
Test system: TO-3-N3 (biotin conjugate)
Experiment: pull-down binding Z-score (relative to library population); higher = stronger binding
Conditions: RNA library: Library-2
Just the number, please, no unit after it.

Need pull-down binding Z-score of `AUAAAAUAGAAGAAUUAUUCUAUUCUUAU` , thanks. -0.26

Using the record for CAUUUGUGGCAUGGACCAUUUGUG [hsa-mir-4504] , report its pull-down binding Z-score. -0.874

Data request, read-out pull-down binding Z-score, for UCUGUUGUCUGAAAGAAAACA [hsa-mir-518b_518c] -0.441

Fill blank: measured pull-down binding Z-score of the sequence GUUAUGUUGAUACACCUAAU [DMSMaPseq_invitro_SARS-CoV-2_Motif_328] is ____. -0.598

I am curious: what pull-down binding Z-score value has been reported for AGCUGUUGGCCAUGGCGACAACACCU [hsa-mir-6742] ? -0.508

Bench note: what pull-down binding Z-score did CUGAGUAACUUGUGCUUAUAACUCAG [hsa-mir-5000] show? 0.396

Please report the recorded pull-down binding Z-score for CAGCUACACAAGCUG [hsa-mir-631] . -0.0598

# get_value(readout='pull-down binding Z-score', item= CAGGGCGGUGCGGCAGCCGCCACC [hsa-mir-3621] ) 0.771

For the sequence GUGGUGGGCACUGCUGGGGUGGGCACAGCAGCCAUGCAGAGCGGGCAUUUGACCCCGUGCCACCCUUUUCCCCAG [hsa-mir-1227] , what pull-down binding Z-score is on record? 2.64

Using the record for GCUUAUGUCAUGACCUUGGGCUACUCAGGCUGUCUGCACAAUGAGC [hsa-mir-575] , report its pull-down binding Z-score. -0.544

---

Assignment: determine reported pull-down binding Z-score for the given sequences.
System: TO-3-N3-2 (biotin conjugate)
Assay: pull-down binding Z-score (relative to library population); higher = stronger binding
Conditions: RNA library: Library-2
Could you keep your reply to the number by itself?

# query: pull-down binding Z-score of entry UAGGUGGUCGAAGUCAUCCACA [hsa-mir-7153] 0.264

Tell me the measured pull-down binding Z-score of GGCCAUUAGAGGCC [IAV_invivo_PB2_1_Motif_29+IAV_invivo_PB2_1_Motif_29] , please. -0.69

Sample GUGCCAGCACAAAAUGCUAUAAGCAC [IAV_invivo_PB1_2_Motif_3+IAV_invivo_PB1_2_Motif_3] — what was its pull-down binding Z-score? -0.201

Dear colleague, I am looking for the recorded pull-down binding Z-score of the following sequence: CACUCCCGUGCUUGUCCGAGGAGGGAGG [hsa-mir-149] 0.731

Quick one: pull-down binding Z-score for GUGUGGAGAGAGCACUGAGCCUGCCCACC [hsa-mir-6849] ? -0.152

Which pull-down binding Z-score reading was recorded for the sequence CCACCCACCAGGGAGCUUUCCAUGGGCUGUGGG [hsa-mir-4725] ? 0.0654

What measured pull-down binding Z-score goes with AAGUGCUUUUGUUAAUUUAAAACAAUUACCAUUU [SHAPE_invitro_SARS-CoV-2_Motif_354] ? -0.225

Look up pull-down binding Z-score for this sequence: `AUGCUGUUACAGCGU` -0.512

Suppose we examine the sequence CCUGCACCACGCACAUUGCUAACUAAGG [SHAPE_invitro_SARS-CoV-2_Motif_318] ; what pull-down binding Z-score value has been reported? -0.173

Dear colleague, I am looking for the recorded pull-down binding Z-score of the following sequence: GGUUGUUAGAUAGACAACU [hsa-mir-4510] 0.19
